Procedure Text: Pharmacokinetic study in mice
Type: in vivo, mouse
Measurement Setup: male, CD-1, mouse, plasma, PO 1 mg/kg
Recorded Endpoint: Tmax (min)
State just the number; it will be interpreted in min.

Consider CC1(C)CN(C(=O)NCCCCO)CCN1Cc1cccc(C(=O)Nc2sc3c(c2C(=O)Nc2cc(F)c(CCc4ccc(C(=O)O)cc4)c(F)c2)CCCC3)c1 . Its measured Tmax is 24

---

Assayed Target: mouse NPT2b (Mus musculus)
Construct: Full-Length cDNA Cloning and Generation of Cell Lines Over-Expressing Human, Mouse, and Rat NPT2b
Sequence (Q9DBP0 whole entry): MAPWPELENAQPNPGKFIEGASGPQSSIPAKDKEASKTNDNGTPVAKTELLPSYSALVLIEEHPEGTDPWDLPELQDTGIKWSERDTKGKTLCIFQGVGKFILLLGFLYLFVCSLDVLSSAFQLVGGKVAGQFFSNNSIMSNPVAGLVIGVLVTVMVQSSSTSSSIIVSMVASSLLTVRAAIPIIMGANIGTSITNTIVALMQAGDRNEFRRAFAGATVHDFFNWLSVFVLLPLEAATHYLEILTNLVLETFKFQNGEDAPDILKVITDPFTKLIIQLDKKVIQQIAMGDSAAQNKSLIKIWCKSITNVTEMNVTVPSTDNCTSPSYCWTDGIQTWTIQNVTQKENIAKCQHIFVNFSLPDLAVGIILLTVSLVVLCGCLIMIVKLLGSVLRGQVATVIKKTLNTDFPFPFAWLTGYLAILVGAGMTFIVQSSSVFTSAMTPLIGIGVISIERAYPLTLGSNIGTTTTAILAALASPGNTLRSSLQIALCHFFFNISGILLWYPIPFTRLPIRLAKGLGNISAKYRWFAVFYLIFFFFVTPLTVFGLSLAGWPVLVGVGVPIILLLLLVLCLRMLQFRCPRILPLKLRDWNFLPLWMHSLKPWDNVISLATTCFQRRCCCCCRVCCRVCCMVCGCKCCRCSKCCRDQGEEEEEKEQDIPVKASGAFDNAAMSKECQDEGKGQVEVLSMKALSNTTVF
Procedure Text: 33P-phosphate uptake in CHO cells expressing mouse NPT2b
Measurement Setup: geometric mean; 2.5 µM phosphate, 60 min, room temperature
Recorded Endpoint: pIC50
// pIC50 is dimensionless: -log10 of concentration (M)

Lab note: CC1(C)CN(C(=O)NCCCCO)CCN1Cc1cccc(C(=O)Nc2sc3c(c2C(=O)Nc2cc(F)c(CCc4ccc(C(=O)O)cc4)c(F)c2)CCCC3)c1 gave pIC50 of 7.36
